B1: FERM and PDZ domain-containing protein 4, residues 75 to 154; numbered along this chain, Q14CM0 (parent)
chain: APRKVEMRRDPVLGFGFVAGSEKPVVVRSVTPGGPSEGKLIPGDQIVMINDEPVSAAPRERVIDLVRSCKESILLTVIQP

variants of: B1; test: abundance fitness (aPCA) (normalised: wild type 0, dead -1); higher = more abundant; growth selection in yeast, the domain comes from the species named; conditions: Homo sapiens
# abundance fitness binned as low: < -0.2; moderate: ≥ -0.2 and < -0.04; high: ≥ -0.04

# count of solved cases: 8
alteration: E60K
qualitative-label: high

alteration: D44W
qualitative-label: low

alteration: V12N
qualitative-label: high

alteration: I46L
qualitative-label: moderate

alteration: P80Q
qualitative-label: high

alteration: L40P
qualitative-label: low

alteration: V47E
qualitative-label: moderate

alteration: D44K
qualitative-label: low

Dear colleague, I would appreciate it if you could identify the bin for L65C and reply at your convenience. moderate

Dear colleague, I would appreciate it if you could identify the bin for I78M and reply at your convenience. high

Dear colleague, I would appreciate it if you could identify the bin for D51L and reply at your convenience. moderate

Dear colleague, I would appreciate it if you could identify the bin for V66P and reply at your convenience. low

Dear colleague, I would appreciate it if you could identify the bin for V26W and reply at your convenience. low

Dear colleague, I would appreciate it if you could identify the bin for I73G and reply at your convenience. low

Dear colleague, I would appreciate it if you could identify the bin for R61V and reply at your convenience. moderate

The measured values listed here are drawn from the Human Domainome abundance scans (Beltran et al. 2025).
